What Ki was measured for each of the following?
Biological target: Sigma-1 binding sites (Cavia porcellus)
Sequence (Q60492 whole entry): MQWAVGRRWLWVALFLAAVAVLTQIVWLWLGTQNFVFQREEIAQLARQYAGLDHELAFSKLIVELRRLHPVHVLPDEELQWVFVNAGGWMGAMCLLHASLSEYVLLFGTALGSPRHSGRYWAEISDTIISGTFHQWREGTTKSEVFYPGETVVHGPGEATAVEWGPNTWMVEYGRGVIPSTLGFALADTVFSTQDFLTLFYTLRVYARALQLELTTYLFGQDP
Assay: σ1 binding assay, [^3H](+)-pentazocine in guinea pig brain membranes
Response body: numeric value in nM, unit text excluded.

I'd like to know its Ki. The molecule in question is COc1ccc(OC)c(NC(=O)O[C@H]2C[C@H]3CCC[C@@H](C2)N3Cc2ccccc2)c1 [Compound 5]
329

I'd like to know its Ki. The molecule in question is COc1ccc(OC)c(NC(=O)O[C@H]2C[C@H]3CC[C@@H](C2)N3Cc2ccccc2)c1 [Compound 9]
72.4

I'd like to know its Ki. The molecule in question is O=C(Nc1ccc(Cl)c(Cl)c1)O[C@H]1C[C@H]2CC[C@@H](C1)N2Cc1ccccc1 [Compound 10]
716

I'd like to know its Ki. The molecule in question is CN1[C@@H]2CCC[C@H]1C[C@@H](OC(=O)Nc1ccc(Cl)c(Cl)c1)C2 [Compound 8]
595

I'd like to know its Ki. The molecule in question is O=C(Nc1ccc(Cl)c(Cl)c1)O[C@H]1C[C@H]2CCC[C@@H](C1)N2Cc1ccccc1 [Compound 4]
33.3

I'd like to know its Ki. The molecule in question is COc1cc(OC)c(NC(=O)O[C@H]2C[C@H]3CCC[C@@H](C2)N3Cc2ccccc2)cc1Cl [Compound 6]
189

Provenance of the data: patent US6676925B1
